Exercise: for every item that follows, state its recorded MIC.
test system: 100 A. baumannii strains (50 MDR, 50 non-MDR); assay: MIC broth microdilution at IHMA Europe, panel of 100 strains; type: cell-based; settings: Acinetobacter baumannii, A. baumannii IHMA 2178574, Ukraine 2020, Non-MDR; read-out: MIC

Input: Please indicate MIC recorded for C[C@@H](O)[C@H]1C(=O)N2C(C(=O)O)=C(SCCNC=N)C[C@H]12
Output: ≤ 0.25 µg/mL

Input: Please indicate MIC recorded for O=C(O)c1cn(C2CC2)c2cc(N3CCNCC3)c(F)cc2c1=O
Output: ≤ 0.06 µg/mL

Input: Please indicate MIC recorded for CO/N=C(\C(=O)N[C@@H]1C(=O)N2C(C(=O)[O-])=C(C[N+]3(C)CCCC3)CS[C@H]12)c1csc(N)n1 [Cefepime, cefepime]
Output: ≤ 0.25 µg/mL

Input: Please indicate MIC recorded for C[C@@H](O)[C@H]1C(=O)N2C(C(=O)O)=C(S[C@@H]3CN[C@H](C(=O)N(C)C)C3)[C@H](C)[C@H]12
Output: ≤ 0.06 µg/mL

###

test: in vivo pharmacokinetics, IV; design: species or system male CD-1 mice; conditions: male, CD-1, mouse, plasma; IV 1 mg/kg
Reported metric: half-life at 24 h (h)
The reply should be a number in h, with the unit left off.

Input: Please indicate half-life at 24 h recorded for Cc1[nH]c(C(=O)Nc2nc3c(N4CCOCC4)cc(C(=O)O)cc3s2)c(Cl)c1Cl [7a]
Output: 1

###

test: physchem; assay type: physicochemical; conditions: pH 7.4, thermodynamic solubility, Experiment 1
Reported metric: solubility thermodynamic at 24 h (µM)
The reply should be a number in µM, with the unit left off.

Input: Please indicate solubility thermodynamic at 24 h recorded for Cc1[nH]c(C(=O)Nc2nc3c(N4[C@@H]5CC[C@H]4COC5)cc(C(=O)O)cc3s2)c(Cl)c1Cl
Output: 3.83

###

Exercise: for every item that follows, state its recorded IC50.
target: topo IV from E. coli (Escherichia coli, UniProt P20083); construct: purchased Inspiralis; test: relaxation HTS plate assay; assay type: biochemical; conditions: IC50
Sequence (P0AFI2 whole entry): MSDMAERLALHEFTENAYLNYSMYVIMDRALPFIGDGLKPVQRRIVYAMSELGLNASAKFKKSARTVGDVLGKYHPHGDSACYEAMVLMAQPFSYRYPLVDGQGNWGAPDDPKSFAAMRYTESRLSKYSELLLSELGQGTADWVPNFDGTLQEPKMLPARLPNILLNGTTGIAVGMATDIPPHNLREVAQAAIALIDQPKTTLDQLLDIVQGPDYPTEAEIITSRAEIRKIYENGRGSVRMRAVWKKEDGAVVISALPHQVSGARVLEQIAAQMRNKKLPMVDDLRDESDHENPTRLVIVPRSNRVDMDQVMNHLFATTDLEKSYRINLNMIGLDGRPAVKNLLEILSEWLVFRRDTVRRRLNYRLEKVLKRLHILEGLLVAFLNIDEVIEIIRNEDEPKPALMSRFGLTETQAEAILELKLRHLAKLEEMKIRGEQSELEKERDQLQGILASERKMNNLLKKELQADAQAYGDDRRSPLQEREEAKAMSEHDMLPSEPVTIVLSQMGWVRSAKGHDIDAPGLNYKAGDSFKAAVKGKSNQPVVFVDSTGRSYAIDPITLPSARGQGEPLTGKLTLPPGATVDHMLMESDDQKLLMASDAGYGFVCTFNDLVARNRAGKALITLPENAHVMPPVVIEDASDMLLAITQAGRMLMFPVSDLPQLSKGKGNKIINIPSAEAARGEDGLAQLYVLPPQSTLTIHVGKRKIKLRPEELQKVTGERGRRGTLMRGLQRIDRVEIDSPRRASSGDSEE
Sequence (P20083 whole entry): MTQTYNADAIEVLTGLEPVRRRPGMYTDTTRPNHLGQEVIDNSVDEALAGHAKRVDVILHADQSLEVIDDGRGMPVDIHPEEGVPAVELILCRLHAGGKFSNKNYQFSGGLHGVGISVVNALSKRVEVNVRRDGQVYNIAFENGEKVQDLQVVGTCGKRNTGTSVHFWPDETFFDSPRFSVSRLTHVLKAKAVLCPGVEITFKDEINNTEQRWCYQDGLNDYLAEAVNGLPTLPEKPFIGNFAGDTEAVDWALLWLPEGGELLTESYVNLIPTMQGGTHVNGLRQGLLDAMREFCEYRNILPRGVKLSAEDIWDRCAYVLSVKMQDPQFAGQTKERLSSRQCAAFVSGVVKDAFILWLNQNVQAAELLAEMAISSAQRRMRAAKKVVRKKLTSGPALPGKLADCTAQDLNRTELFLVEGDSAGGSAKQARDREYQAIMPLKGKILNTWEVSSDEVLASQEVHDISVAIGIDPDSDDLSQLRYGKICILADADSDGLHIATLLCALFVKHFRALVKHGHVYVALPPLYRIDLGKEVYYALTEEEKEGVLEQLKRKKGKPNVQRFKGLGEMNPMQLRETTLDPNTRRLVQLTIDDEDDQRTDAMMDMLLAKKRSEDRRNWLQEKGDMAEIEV

Input: Please indicate IC50 recorded for Cc1[nH]c(C(=O)Nc2nc3c(N4CC[C@H](N)C4)cc(C(=O)O)cc3s2)c(Cl)c1Cl.Cl
Output: < 0.1 µM

Input: Please indicate IC50 recorded for COCCCNc1cc(C(=O)O)cc2sc(NC(=O)c3[nH]c(C)c(Cl)c3Cl)nc12.N
Output: 0.19 µM

Input: Please indicate IC50 recorded for Cc1[nH]c(C(=O)Nc2nc3c(N4CCOC(C(F)(F)F)C4)cc(C(=O)O)cc3s2)c(Cl)c1Cl (stereo not shown)
Output: 0.063 µM

Input: Please indicate IC50 recorded for Cc1[nH]c(C(=O)Nc2nc3c(N4CC[S+]([O-])CC4)cc(C(=O)O)cc3s2)c(Cl)c1Cl
Output: < 0.1 µM

###

experiment: physchem; type: physicochemical; settings: pH 7.4, thermodynamic solubility, Experiment 2
Reported metric: solubility thermodynamic at 24 h
Include the unit after the number when you answer.

Input: Please indicate solubility thermodynamic at 24 h recorded for Cc1[nH]c(C(=O)Nc2nc3c(N4[C@@H]5CC[C@H]4COC5)cc(C(=O)O)cc3s2)c(Cl)c1Cl
Output: 3.8 µM

###

Exercise: for every item that follows, state its recorded MIC.
tested on: 100 A. baumannii strains (50 MDR, 50 non-MDR); assay: MIC broth microdilution at IHMA Europe, panel of 100 strains; assay type: cell-based; conditions: Acinetobacter baumannii, A. baumannii IHMA 1795669, Tunisia 2018, Non-MDR; read-out: MIC
The reply should be a number in µg/mL, with the unit left off.

Input: Please indicate MIC recorded for CN(C)c1cc(NC(=O)CNC(C)(C)C)c(O)c2c1C[C@H]1C[C@H]3[C@H](N(C)C)C(O)=C(C(N)=O)C(=O)[C@@]3(O)C(O)=C1C2=O [Tigecycline, tigecycline]
Output: 0.06

Input: Please indicate MIC recorded for CO/N=C(\C(=O)N[C@@H]1C(=O)N2C(C(=O)[O-])=C(C[N+]3(C)CCCC3)CS[C@H]12)c1csc(N)n1 [Cefepime, cefepime]
Output: 4

###

system: 100 A. baumannii strains (50 MDR, 50 non-MDR); experiment: MIC broth microdilution at IHMA Europe, panel of 100 strains; type: cell-based; settings: Acinetobacter baumannii, all isolates n = 100; read-out: MIC 50
Reported metric: MIC50 (µg/mL)
The reply should be a number in µg/mL, with the unit left off.

Input: Please indicate MIC50 recorded for CO/N=C(\C(=O)N[C@@H]1C(=O)N2C(C(=O)[O-])=C(C[N+]3(C)CCCC3)CS[C@H]12)c1csc(N)n1 [Cefepime, cefepime]
Output: 8

Input: Please indicate MIC50 recorded for C[C@@H](O)[C@H]1C(=O)N2C(C(=O)O)=C(SCCNC=N)C[C@H]12
Output: 0.5

Input: Please indicate MIC50 recorded for O=C(O)c1cn(C2CC2)c2cc(N3CCNCC3)c(F)cc2c1=O
Output: 2

Input: Please indicate MIC50 recorded for C[C@@H](O)[C@H]1C(=O)N2C(C(=O)O)=C(S[C@@H]3CN[C@H](C(=O)N(C)C)C3)[C@H](C)[C@H]12
Output: 1

Input: Please indicate MIC50 recorded for Cc1[nH]c(C(=O)Nc2nc3c(N4[C@@H]5CC[C@H]4COC5)cc(C(=O)O)cc3s2)c(Cl)c1Cl
Output: 2

Input: Please indicate MIC50 recorded for CN(C)c1cc(NC(=O)CNC(C)(C)C)c(O)c2c1C[C@H]1C[C@H]3[C@H](N(C)C)C(O)=C(C(N)=O)C(=O)[C@@]3(O)C(O)=C1C2=O
Output: 0.5

###

system: K. pneumoniae ATCC 13883
Exercise: for every item that follows, state its recorded MIC.
The reply should be a number in µg/mL, with the unit left off.

Input: Please indicate MIC recorded for Cc1[nH]c(C(=O)Nc2nc3c(CN4CCOCC4)cc(C(=O)O)cc3s2)c(Cl)c1Cl.Cl [compound 14]
Output: 64

Input: Please indicate MIC recorded for Cc1[nH]c(C(=O)Nc2nc3c(N4CCNCC4)cc(C(=O)O)cc3s2)c(Cl)c1Cl.Cl [8b]
Output: 64

###

assay: physchem; format: physicochemical; conditions: phosphate-buffered saline (PBS), pH 7.4, PBS pH 7.4; read-out: thermodynamic solubility, Experiment 2
Exercise: for every item that follows, state its recorded solubility thermodynamic at 24 h.
Include the unit after the number when you answer.

Input: Please indicate solubility thermodynamic at 24 h recorded for Cc1[nH]c(C(=O)Nc2nc3c(N4CCOC(C)C4)cc(C(=O)O)cc3s2)c(Cl)c1Cl (centres unmarked)
Output: 88.8 µM

Input: Please indicate solubility thermodynamic at 24 h recorded for COC[C@@H]1CCCN1c1cc(C(=O)O)cc2sc(NC(=O)c3[nH]c(C)c(Cl)c3Cl)nc12
Output: 11.4 µM

Input: Please indicate solubility thermodynamic at 24 h recorded for Cc1[nH]c(C(=O)Nc2nc3c(N4CCOC[C@@H]4C)cc(C(=O)O)cc3s2)c(Cl)c1Cl
Output: 6.07 µM

Input: Please indicate solubility thermodynamic at 24 h recorded for Cc1[nH]c(C(=O)Nc2nc3c(N4CCC(O)CC4)cc(C(=O)O)cc3s2)c(Cl)c1Cl
Output: 88.3 µM

Input: Please indicate solubility thermodynamic at 24 h recorded for Cc1[nH]c(C(=O)Nc2nc3c(N4CCOCC4C)cc(C(=O)O)cc3s2)c(Cl)c1Cl (centres unmarked)
Output: 76.6 µM

Input: Please indicate solubility thermodynamic at 24 h recorded for COCC1CCCN1c1cc(C(=O)O)cc2sc(NC(=O)c3[nH]c(C)c(Cl)c3Cl)nc12 (centres unmarked)
Output: 11.4 µM

Input: Please indicate solubility thermodynamic at 24 h recorded for Cc1[nH]c(C(=O)Nc2nc3c(N4CCOC[C@H]4C)cc(C(=O)O)cc3s2)c(Cl)c1Cl
Output: 11.6 µM

Input: Please indicate solubility thermodynamic at 24 h recorded for Cc1[nH]c(C(=O)Nc2nc3c(N4C[C@H]5CC[C@@H](C4)O5)cc(C(=O)O)cc3s2)c(Cl)c1Cl
Output: 0.19 µM

###

assay: in vivo pharmacokinetics, IV; design: species or system male CD-1 mice; conditions: male, CD-1, mouse, plasma; IV 1 mg/kg
Reported metric: clearance at 24 h (mL/min/kg)
The reply should be a number in mL/min/kg, with the unit left off.

Input: Please indicate clearance at 24 h recorded for Cc1[nH]c(C(=O)Nc2nc3c(N4CCOCC4)cc(C(=O)O)cc3s2)c(Cl)c1Cl [7a]
Output: 54.8

###

Experiment: physchem
Assay type: physicochemical
Settings: pH 7.4, thermodynamic solubility (pH = 7.4)
Description: For the PBS, 2.38 g of disodium hydrogen phosphate dodecahydrate, 0.19 g of potassium dihydrogen phosphate, and 8.0 g of sodium chloride were added to distilled water (900 mL), and the solution was mixed overnight. […] The supernatant was diluted 3× with a 1:1 mixture of 0.1% TFA in water and acetonitrile and analyzed by HPLC. […] Method repeatability was determined by calculating the RSD from the separately prepared and analysed quality control samples (n = 3). […]
Reported metric: solubility thermodynamic at 48 h (µM)
The reply should be a number in µM, with the unit left off.

Input: Please indicate solubility thermodynamic at 48 h recorded for Cc1[nH]c(C(=O)Nc2nc3c(N4CCOCC4)cc(C(=O)O)cc3s2)c(Cl)c1Cl
Output: 98
